The following compounds are listed with their measured inhibition values.
- assayText: M3R calcium signalling without RGS4 expression – cell-based, HEK293 M3R, non-induced RGS4, Fluo-4 calcium, counter-screen for RGS4 activator project, primary screen (AID 602283);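 further: percent drop in integrated peak-minus-baseline over baseline Fluo4 ratio after carbachol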
- particulars: HEK293 M3R non-induced RGS4, Fluo4 calcium flux, at 10 µM, stronger effect = higher value, after carbachol challenge at its EC90
Hit rate of the full screen: of about 1,100 compounds, about 940 (85%) were called active. So high a share suggests a set chosen from earlier hits. The list is a sample of the results.
recordedMetric: inhibition (%)

>>> df
                                   compound  assayvalue
0  Cc1ccc(C)c(N2CCN(C(=O)CCCn3c(=O)c4cccn4c4cccnc43)CC2)c1        55.3
1  CCC1CCCCN1CCCNC(=O)c1cc2c(Cl)nc3ccccc3c2s1 (stereo unspecified)        71.8
2  CCC1C=C(c2ccccc2)C=CN=C1N(CC)CC (stereo unspecified)        83.8
3  Cc1ccc(C)c(N2CCN(C(=O)CCCCCn3c(=S)[nH]c4ccc(N5CCOCC5)cc4c3=O)CC2)c1        52.8
4  COc1cccc(/C=N/Nc2cc(C)nc(-c3ccccc3O)n2)c1O        85.8
5  COc1ccccc1C(CNC(=O)c1cccc(NS(=O)(=O)c2ccc(Br)cc2)c1)N(C)C (stereo unspecified)        51.3

Origin of measurements: PubChem BioAssay AID602283
